test: Determination of log P values by HPLC on a reverse phase column (C18), EEC-Directive 79/831 Annex V.A8 (Methods A, B, C); format: physicochemical; conditions: reverse phase C18 HPLC column, pH 2.3, intermediates of formula [IV] and [XXXVII]; HPLC, reverse phase C18; read-out: LogP (pH 2.3)
Entries and their chromatographic logP
measured-quantity: chromatographic logP

# molecule, test-result
data = [
    ("Brc1c(-c2ccccc2)nn2ccoc12 [[IV-a-4]]", 2.91),
    ("Fc1ccc(-c2nn3c(c2Br)OCC(F)(F)C3)cc1 [[IV-7]]", 3.3),
    ("C[C@@H]1C[C@@H](C)n2nc(-c3ccc(F)cc3)c(Br)c2O1 (racemic) [[IV-9a]]", 3.91),
    ("CC1(C#N)COc2c(Br)c(-c3ccc(F)cc3)nn2C1 (centres unmarked) [[IV-11]]", 2.94),
    ("Brc1c(-c2ccccc2)nn2c1OCCC2 [[IV-1]]", 2.66),
    ("CC1(C)COc2c(Br)c(-c3ccc(F)cc3)nn2C1 [[IV-10]]", 3.63),
    ("C[Si]1(C)COc2c(Br)c(-c3cccs3)nn2C1 [[IV-12]]", 3.58),
    ("Brc1c(-c2ccccc2)nn2cccnc12 [[XXXVII-1]]", 2.63),
    ("Fc1ccc(-c2nn3ccoc3c2Br)cc1 [[IV-a-3]]", 3.07),
    ("CC1CCOc2c(Br)c(-c3ccc(F)cc3)nn21 (centres unmarked) [[IV-6]]", 3.36),
    ("Fc1ccc(-c2nn3c(c2Br)OCCC3)cc1 [[IV-2]]", 2.86),
    ("C[Si]1(C)COc2c(Br)c(-c3ccc(F)cc3)nn2C1 [[IV-5]]", 3.83),
    ("CC1Oc2c(Br)c(-c3ccc(F)cc3)nn2C1C (centres unmarked) [[IV-8]]", 3.39),
    ("Fc1ccc(-c2nn3c(c2Br)OCC3)cc1 [[IV-4]]", 2.69),
]

* * *

experiment: Determination of log P values by HPLC on a reverse phase column (C18), EEC-Directive 79/831 Annex V.A8 (Methods A, B, C); type: physicochemical; conditions: Method C (HPLC, reverse phase C18)
# Lookup of reported LogP keyed by entry

# molecule, LogP
rows = [
    ("CCC(=O)Nc1cc(-c2c(-c3ccc(F)cc3)nn3c2OC[Si](C)(C)C3)ccn1 [Example 77]", 2.15),
    ("C[Si]1(C)COc2c(-c3ccnc(NC(=O)C4CC4)c3)c(-c3ccsc3)nn2C1 [Example 102]", 1.97),
    ("CC(=O)N(C(C)=O)c1cc(-c2c(-c3ccc(F)cc3)nn3cccnc23)ccn1 [Example 83]", 2.22),
    ("CCN1CCCn2nc(-c3ccc(F)cc3)c(-c3ccnc(NCc4ccccc4)c3)c21 [Example 97]", 1.86),
    ("CCC(=O)Nc1cc(-c2c(-c3ccsc3)nn3c2OC[Si](C)(C)C3)ccn1 [Example 100]", 1.88),
    ("CC(=O)Nc1cc(-c2c(-c3cccs3)nn3c2OC[Si](C)(C)C3)ccn1 [Example 85]", 1.74),
    ("CCC(=O)N1CCCn2nc(-c3ccc(F)cc3)c(-c3ccnc(N(C(C)=O)C(=O)CC)c3)c21 [Example 90]", 2.39),
    ("C[Si]1(C)COc2c(-c3ccnc(NC(=O)C4CC4)c3)c(-c3ccc(F)cc3)nn2C1 [Example 81]", 2.18),
    ("O=C(C1CC1)N(C(=O)C1CC1)c1cc(-c2c(-c3ccc(F)cc3)nn3cccnc23)ccn1 [Example 84]", 2.94),
    ("CC(=O)Nc1cc(-c2c(-c3ccc(F)cc3)nn3c2OC[Si](C)(C)C3)ccn1 [Example 61]", 2.01),
    ("CCC(=O)Nc1cc(-c2c(-c3ccc(F)cc3)nn3c2OCC(C)(C)C3)ccn1 [Example 110]", 2.00),
    ("CCC(=O)N(C)c1cc(-c2c(-c3ccc(F)cc3)nn3c2N(C(=O)CC)CCC3)ccn1 [Example 93]", 2.05),
    ("C[Si]1(C)COc2c(-c3ccnc(NC(=O)C4CC4)c3)c(-c3cccs3)nn2C1 [Example 87]", 2.08),
    ("CC(=O)Nc1cc(-c2c(-c3ccsc3)nn3c2OC[Si](C)(C)C3)ccn1 [Example 96]", 1.62),
    ("CCC(=O)Nc1cc(-c2c(-c3ccc(F)cc3)nn3c2NCCC3)ccn1 [Example 80]", 1.35),
    ("CC(C)C(=O)Nc1cc(-c2c(-c3ccc(F)cc3)nn3c2OCC(C)(C)C3)ccn1 [Example 111]", 2.23),
    ("CCC(=O)Nc1cc(-c2c(-c3ccccc3)nn3c2N(C(=O)CC)CCC3)ccn1 [Example 78]", 1.45),
    ("CC(C)C(=O)N(C(=O)C(C)C)c1cc(-c2c(-c3ccccc3)nn3c2NCCC3)ccn1 [Example 92]", 3.08),
    ("O=C(Nc1cc(-c2c(-c3ccc(F)cc3)nn3cccnc23)ccn1)C1CC1 [Example 88]", 1.75),
    ("CC(C)C(=O)Nc1cc(-c2c(-c3ccc(F)cc3)nn3c2OCC(C)(C#N)C3)ccn1 (centres unmarked) [Example 107]", 1.94),
    ("CC(=O)Nc1cc(-c2c(-c3ccc(F)cc3)nn3c2N(C(C)=O)CCC3)ccn1 [Example 94]", 1.26),
    ("CC(C)C(=O)Nc1cc(-c2c(-c3cccs3)nn3c2OC[Si](C)(C)C3)ccn1 [Example 86]", 2.28),
    ("CCC(=O)Nc1cc(-c2c(-c3ccc(F)cc3)nn3c2N(C(=O)CC)CCC3)ccn1 [Example 91]", 1.62),
    ("CC(=O)Nc1cc(-c2c(-c3ccc(F)cc3)nn3c2OCC(C)(C)C3)ccn1 [Example 109]", 1.75),
    ("CC1(C)COc2c(-c3ccnc(NC(=O)C4CC4)c3)c(-c3ccc(F)cc3)nn2C1 [Example 108]", 2.08),
    ("CCC(=O)Nc1cc(-c2c(-c3cccs3)nn3c2OC[Si](C)(C)C3)ccn1 [Example 82]", 1.81),
    ("CC(C)C(=O)Nc1cc(-c2c(-c3ccc(F)cc3)nn3c2OC[Si](C)(C)C3)ccn1 [Example 76]", 2.14),
    ("CCC(=O)Nc1cc(-c2c(-c3ccc(F)cc3)nn3cccnc23)ccn1 [Example 79]", 1.91),
    ("CC(C)C(=O)Nc1cc(-c2c(-c3ccsc3)nn3c2OC[Si](C)(C)C3)ccn1 [Example 101]", 2.11),
]

* * *

assay: Determination of log P values by HPLC on a reverse phase column (C18), EEC-Directive 79/831 Annex V.A8 (Methods A, B, C); format: physicochemical; conditions: Method B (HPLC, reverse phase C18)
Readings of LogP for the listed compounds

# compound, LogP
rows = [
    ("O=C(Nc1cc(-c2c(-c3ccc(F)cc3F)nn3c2OCCC3)ccn1)C1CC1", 1.42),
    ("CC1(C(=O)Nc2cc(-c3c(-c4ccc(F)cc4)nn4c3OCCC4)ccn2)COCOC1", 1.86),
    ("O=C(Nc1cc(-c2c(-c3ccc(F)cc3)nn3c2OCCC3)ccn1)C1C2CCCCC21 (stereo not shown)", 2.13),
    ("O=C(Nc1cc(-c2c(-c3ccc(F)cc3)nn3c2OCCC3)ccn1)c1ccc(F)s1", 2.42),
    ("O=C(Nc1cc(-c2c(-c3ccc(F)cc3)nn3c2OCCC3)ccn1)C1CCSCC1", 1.83),
    ("Cc1occc1C(=O)Nc1cc(-c2c(-c3ccc(F)cc3)nn3c2OCCC3)ccn1", 1.96),
    ("CCOC(=O)Nc1cc(-c2c(-c3ccccc3)nn3c2OCCC3)ccn1", 1.51),
    ("O=C(Nc1cc(-c2c(-c3ccc(F)cc3)nn3c2OCCC3)ccn1)c1cncc(F)c1", 1.96),
    ("CC1(C(=O)Nc2cc(-c3c(-c4ccc(F)cc4)nn4c3OCCC4)ccn2)CC=CCC1 (stereo not shown)", 2.38),
    ("CCOC(=O)Nc1cc(-c2c(-c3ccc(F)cc3)nn3c2OCCC3)ccn1", 1.66),
    ("CC(C)=CCC(=O)Nc1cc(-c2c(-c3ccc(F)cc3F)nn3c2OCCC3)ccn1", 2.1),
    ("CC(C)CC(=O)Nc1cc(-c2c(-c3ccc(F)cc3F)nn3c2OCCC3)ccn1", 1.88),
    ("CCC(C)C(=O)Nc1cc(-c2c(-c3ccccc3)nn3c2OCCC3)ccn1 (stereo not shown)", 1.63),
    ("CCOC(=O)Nc1cc(-c2c(-c3ccc(F)cc3F)nn3c2OCCC3)ccn1", 1.72),
    ("O=C(Nc1cc(-c2c(-c3ccccc3)nn3c2OCCC3)ccn1)C1CCOCC1", 1.22),
    ("CC(C(=O)Nc1cc(-c2c(-c3ccccc3)nn3c2OCCC3)ccn1)c1ccc(F)cc1 (stereo not shown)", 2.27),
    ("O=C(Nc1cc(-c2c(-c3ccc(F)cc3F)nn3c2OCCC3)ccn1)C1(Cl)CC1", 2.84),
    ("O=C(CC(F)(F)F)Nc1cc(-c2c(-c3ccccc3)nn3c2OCCC3)ccn1", 1.98),
    ("CCC(=O)Nc1cc(-c2c(-c3ccccc3)nn3c2OCCC3)ccn1", 1.16),
    ("CC(C)=NOC(C)C(=O)Nc1cc(-c2c(-c3ccc(F)cc3)nn3c2OCCC3)ccn1 (stereo not shown)", 2.34),
    ("CC(C)(C)CC(=O)Nc1cc(-c2c(-c3ccc(F)cc3)nn3c2OCCC3)ccn1", 2.04),
    ("CC(C)C(=O)Nc1cc(-c2c(-c3ccc(F)cc3)nn3c2OCCC3)ccn1", 1.54),
    ("Cc1noc(C)c1C(=O)Nc1cc(-c2c(-c3ccc(F)cc3)nn3c2OCCC3)ccn1", 2.06),
    ("O=C(CC1CC1)Nc1cc(-c2c(-c3ccc(F)cc3)nn3c2OCCC3)ccn1", 1.69),
    ("O=C(Nc1cc(-c2c(-c3ccc(F)cc3)nn3c2OCCC3)ccn1)C1CC1(F)Cl (stereo not shown)", 2.13),
    ("O=C(Nc1cc(-c2c(-c3ccc(F)cc3)nn3c2OCCC3)ccn1)C1(C2CC2)CC1", 2.46),
    ("CC(C)C(=O)Nc1cc(-c2c(-c3ccc(F)cc3F)nn3c2OCCC3)ccn1", 1.6),
    ("O=C(Nc1cc(-c2c(-c3ccc(F)cc3)nn3c2OCCC3)ccn1)C1SCCS1", 2.1),
    ("O=C(Nc1cc(-c2c(-c3ccc(F)cc3)nn3c2OCCC3)ccn1)c1c(F)cccc1F", 2.43),
    ("CCC1(C(=O)Nc2cc(-c3c(-c4ccc(F)cc4)nn4c3OCCC4)ccn2)COC1", 1.56),
    ("O=C(Nc1cc(-c2c(-c3ccc(F)cc3)nn3c2OCCC3)ccn1)C1CC2CCC1C2 (stereo not shown)", 3.11),
    ("C[C@H](O)C(=O)Nc1cc(-c2c(-c3ccccc3)nn3c2OCCC3)ccn1", 1.2),
    ("CCC(C)C(=O)Nc1cc(-c2c(-c3ccc(F)cc3F)nn3c2OCCC3)ccn1 (stereo not shown)", 1.85),
    ("O=C(CC(F)(F)F)Nc1cc(-c2c(-c3ccc(F)cc3)nn3c2OCCC3)ccn1", 2.13),
]
